Attribution: patent US20220133679A1

Assay: Therapeutic agent brain penetration studies (brain concentration)
Assay type: in vivo, wildtype FVB mice
Conditions: female, FVB (wildtype), mouse, in vivo, loperamide 5 mg/kg i.v. with elacridar TPGS NP 100 mg/kg p.o. about 6 h before; 1 h; read-out: Brain concentration of loperamide, individual animals
REPORTED_METRIC: concentration at 1 h (ng/g)
All answers are understood in ng/g, so give the number only.

// concentration at 1 h lookup, compound = CN(C)C(=O)C(CCN1CCC(O)(c2ccc(Cl)cc2)CC1)(c1ccccc1)c1ccccc1 [loperamide] , result: 2910
